target: RpfC (full-length, in liposomes) (Xanthomonas campestris); experiment: […] autophosphorylation assay, RpfC liposomes; settings: activation of autokinase; 100 µM ATP, pH 7.8, 5 mM MgCl2, 28 °C
Sequence (P0C0F7 whole entry): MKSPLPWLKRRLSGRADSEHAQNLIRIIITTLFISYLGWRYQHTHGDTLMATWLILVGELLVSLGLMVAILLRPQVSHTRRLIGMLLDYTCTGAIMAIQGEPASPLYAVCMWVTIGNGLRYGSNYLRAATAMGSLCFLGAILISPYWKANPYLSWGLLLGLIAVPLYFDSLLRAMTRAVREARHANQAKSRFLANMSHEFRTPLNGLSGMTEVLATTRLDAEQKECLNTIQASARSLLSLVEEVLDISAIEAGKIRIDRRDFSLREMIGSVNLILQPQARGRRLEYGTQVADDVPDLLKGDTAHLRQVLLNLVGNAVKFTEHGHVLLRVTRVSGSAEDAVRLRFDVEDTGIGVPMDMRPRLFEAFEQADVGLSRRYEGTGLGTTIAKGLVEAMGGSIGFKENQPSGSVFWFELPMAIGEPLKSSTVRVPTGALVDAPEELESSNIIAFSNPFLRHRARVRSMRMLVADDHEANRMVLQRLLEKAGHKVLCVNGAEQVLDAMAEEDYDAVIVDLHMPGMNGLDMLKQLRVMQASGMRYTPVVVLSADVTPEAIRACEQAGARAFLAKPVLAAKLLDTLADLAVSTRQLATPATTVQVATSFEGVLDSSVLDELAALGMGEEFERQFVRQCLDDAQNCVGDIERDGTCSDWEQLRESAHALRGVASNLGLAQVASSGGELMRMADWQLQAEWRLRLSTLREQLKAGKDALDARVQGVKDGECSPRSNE
READOUT LABEL: pEC50
Entry type: numeric. Quantity: pEC50, the -log10 of concentration in molar units.

[ask] # return recorded pEC50 for entry CCCCCCCCC/C=C/C(=O)O [trans-BDSF]
[reply] 5.95

* * *

target: UniProt P0C0F7
READOUT LABEL: pKd
Entry type: numeric. Quantity: pKd, the -log10 of concentration in molar units.

[ask] Give pKd only, for CCCCCCCCC/C=C/C(=O)O [trans-BDSF] , using UniProt P0C0F7 data.
[reply] 4.95
